Field: Fold Activity. Provide a value for each of the molecules that follow.
test: Saturation mutagenesis of SEQ ID NO:109: dicamba decarboxylation activity of point mutants (CO2 released), fold of backbone (Tables 7, 8, Megatable 1); conditions: decarboxylation activity (CO2 released) of point mutant vs unmutated backbone protein; backbone SEQ ID NO: 109
Give your result as the value with the unit written after it.

21 (protein, listed as Agrobacterium tumefaciens) MAQGKVALEEHFAIPETLQDSAGFVPGDYWKELQHRLLDIQDTRLKLMDAHGIETMILSLNAPAVQAIPDRKKAIEIARRANDVLAEECARRPDRFLAFAALPLQDPDAATQELQRCVNDLGFVGALVNGFSQEGDGQTPLYYDLPQYRPFWGEVEKLDVPFYLHPRNPLPQDSRIYDGHPWLLGPTWAFAQETAVHALRLMASGLFDAHPRLNIILGHMGEGLPYMMWRIDHRNAWVKLPPRYPAKRRFVDYFNENFHITTSGNFRTQTLIDAILEIGADRILFSTDWPFENIDHASDWFNATTIAEADRVKIGRTNARRLFKLDGR    1.9 fold

List reported Fold Activity for each of these molecules:
1. 88 (protein, listed as Starkeya novella) MARKIALEEHFTTPELAGKYVARPTQSDALFADIERRLADFDELRLEMMDRAEIDLMVLSVTTPGVQGVRDTGEAIRLARGANDFLAREVQKRPSRYAGFAHLAMQDAEAAATELERAVRELGFRGALINGQTNGHYLDEDQYAPFWERVQELDVPVYLHPGNMADSPAMFAHRPELGGPIWAWTAETAAHALRLVFGGTFTRFPGAKVILGHMGETLPFLLWRLDSRREFDLGEKLAPDALPSAIIKRNIAVTTSGVCDPAPLVAALQALSDDNVMFSVDYPYEDPQLASKFIETAPIGEETRAKVCHGNAERLLGL
2. 20 (protein, listed as Legionella pneumophila) MAIVDFETHFITEACIDYLTQRQEVPKLVPDLNGAYTMCFTPDVSLFHTSALMEELLSLNEQRLAIMDQAGVTIQVLSLTTINGIDSCPGDENKSTALAREVNDQLYSAIQRHPERFKGFASISPYDVKEGVKELERAISQLGFVGWLTHSNFGQDNYLDDKTYWPLLEAAEGLNIPIYLHPNVPIMREFGKYGFALGGSALGFEFDTALCLMRMILGGVFDAFPKLKIMLGHLGETMPFLMERLDHLYRIPDLKAYRPSIQRIPSEVLRQNVYITTSGRFFVPALRYVLEVMGEDRVLFASDYPMESLLDATRFIQDSDLSNQTKQKIFSINAKNLNLI
3. 98 (protein, Xanthomonas campestris pv.) MAIIDCHGHYTTAPAAHDAFRKAQIAHHDDPQQPAPQYPHISDDALRESIEQHQLRLLRERGADMTIFSPRASTMAHHIGNEAVSQVWTQRCNDLIARVVQLYPHTFIGVCQLPQSPGVPISHSIAELERCVNELGFVGCNLNPDPSGGHWNGVPLTDRAWYPFFEKMVELDVPAMVHVSGSCNANFHATGAHYLNADTTAFMQFLEGDLFRDFPSLRFIIPHGGGAVPYHWGRFRGLADMLGKPPLATHVMRNVFFDTCVYHQPGIDLLFEVIDIDNILFGSEMVGAVRGIDPQTGHYFDDTKRYIDALTISDADKRKVFEGNARRVYPRLDAQLRARGL
4. 77 (protein, Burkholderia xenovorans) MALIDLHAHAPHPGYYNQHPHWGPFFERHEDGDVKLRVGDWILTLGSPERKALVRAGKGPTVEEYQARWADPKVRLAGMDAAGQNAQVVSVPSHCYMYWAEKEFSVPFATKVNDTFAEYCSAAPDRLMFWAHAALNAPEQAALELRRACTELGAKGLVAGGANFGGLEFDSPELDPVWKVLCDLDLPMFIHGYNQSVTWGKKANDDRYETTAIVGMQYDETRCFWNLVCGGVLDRFPGLKVYITHGGGYVPYQLGRLAQCNGNLDVAHNKKPVLEYLKNNFYFDVELHEVPMRQALIDIIGADRVLYGSNFGGSDAVRHDLTEGLRLSDDDLQKIRWKNACKLLHLDPAKIGEPAKKQAVSA
5. 58 (protein, Mycobacterium colombiense) MARVIALEEHYATTEFLRGPGTWLASRPGIVEPAGDLGDGRIAAMDQAGVDLAVLSLAAPGVEQLDPDDAVRLARDCNDQLAAAVRRYPDRLAGFATVPTSAPDRAADELERAVRGLGFPGAVINGHSRGRYLDDPFFEPVLARAAELQAPIYLHPTIPPAGVIESSYAGFAEPVTFALATVGWGWHINTATHALRMILGGVFDRHPSLQMIIGHMGEATSFMLPRFDATLKPELTGLNHPVSSYLRENFHYTFANFNDHATYANLVAQVGIERVAFSADYPFGSMVDARAFLDGLPLSDDERAAISHRNAEKLLGL
6. 121 (protein, Dicamba decarboxylase variant clone: DC.12.014) MAIIDCHGHYTTTPKGVEDYRNAQKAAVAKDPSFKGEKGQVVVSDDEIRESIENNQLKMQRERGTDLTIFSPRWDAGGHHIGNEYTSQFWTEHQNDLIRRVCDLFPKNFAPVAQLPQSPGVDPAKSVPEIVRTVEQMGFIGINLNPDPSGGYWKDTSLADRAFYPIYEKMVEYDIPAMIHPRLACNACFHTGLSVGLGADTTGFQQLIMSDVFKDFPSLKIIIPHGGGAVPYHWGRFRGLMQDQGYAPLEESALKNIYFDTCVYHQRGIDLLLDIVPTQNILFASEMIGAVRGIDPETGHNFDDTKRYIDNNTALNAEEKAMIFEGNARRVFSRLKTD

## Result
1.3 fold
1.8 fold
2.3 fold
1.3 fold
1.5 fold
1 fold

The reported measurements were obtained from patent US20160040149A1.
